Source: ChEMBL document CHEMBL3865823

# pIC50 per entry for UniProtKB P21836
# Sequence (P21836 whole entry): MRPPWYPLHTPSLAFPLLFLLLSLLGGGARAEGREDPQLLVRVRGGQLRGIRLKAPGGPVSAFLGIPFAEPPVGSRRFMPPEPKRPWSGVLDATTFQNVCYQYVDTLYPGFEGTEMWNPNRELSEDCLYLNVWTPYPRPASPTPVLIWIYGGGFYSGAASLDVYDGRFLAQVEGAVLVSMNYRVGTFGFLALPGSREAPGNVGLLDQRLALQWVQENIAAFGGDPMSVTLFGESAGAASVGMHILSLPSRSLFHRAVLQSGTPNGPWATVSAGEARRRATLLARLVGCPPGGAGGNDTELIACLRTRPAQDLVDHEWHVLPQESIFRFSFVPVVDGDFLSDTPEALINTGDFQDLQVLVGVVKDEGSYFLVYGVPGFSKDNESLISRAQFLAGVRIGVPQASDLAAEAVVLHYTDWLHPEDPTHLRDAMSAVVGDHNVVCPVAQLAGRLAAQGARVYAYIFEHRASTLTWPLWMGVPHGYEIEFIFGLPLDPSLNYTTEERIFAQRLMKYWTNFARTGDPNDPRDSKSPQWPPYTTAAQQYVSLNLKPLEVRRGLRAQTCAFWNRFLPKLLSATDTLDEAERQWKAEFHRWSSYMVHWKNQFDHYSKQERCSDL
pIC50 here is simply -log10 of the concentration when that concentration is written in mol/L.

Input line: For UniProtKB P21836, provide pIC50 of `O=C(Nc1nnc(-c2ccccc2Cl)s1)c1cc(C(F)(F)F)cc(C(F)(F)F)c1` please.
Output line: 5.56

Input line: Moving on to `Cc1ccc(-c2nnc(NC(=O)c3cc(C(F)(F)F)cc(C(F)(F)F)c3)s2)cc1`
Output line: 5.15

Input line: Moving on to `CC(=O)Oc1cccc(C(=O)Nc2nnc(-c3ccc(C)cc3)s2)c1`
Output line: 4.97

Input line: Moving on to `CC(=O)Oc1cccc(C(=O)Nc2nnc(Cc3ccccc3)s2)c1`
Output line: 4.94

Input line: Moving on to `O=C(Nc1nnc(-c2ccccc2Cl)s1)c1cccc(CCl)c1`
Output line: 5.52

Input line: Moving on to `O=C(Nc1nnc(Cc2ccccc2)s1)c1cccc(CCl)c1`
Output line: 4.69

Input line: Moving on to CC(CC(=O)Nc1nnc(-c2cccc(Cl)c2)s1)CC(C)(C)C (configuration not stated)
Output line: 4.86
